# Test system: K4 kissing-loop RNA reporter;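 also: bound reporter read as fluorescence of individual clusters on recovered sequencing chips by microscopy, with normalized cluster intensities fitted with a binding model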
# Assay Method Text: apparent KD of K4 kissing-loop reporter; higher = weaker reporter binding
# Settings: Eterna round: R107; input ligand: tryptophan 2.4 mM
Classes (apparent KD of K4 kissing-loop reporter): bucket A: < 0.1 µM; bucket B: ≥ 0.1 µM and < 0.2 µM; bucket C: ≥ 0.2 µM

- Sequence Data: "CGCAGUGAUGUUGCUAUUAUUCUUGGUUAACGAGGACCGGUACGGCCGCCACUCGAUUUCUGUCUAGUCCAGUGUUUUUUUGAGU [whbob_EX_Tryp_A_t7]"
  Study System: "K4 kissing-loop RNA reporter"
  Label: "bucket C"
- Sequence Data: "AGUGAGUGAUGUUCACUGUACGUGUCUGAAGGAGCGACAUCGAUGUCAGGUAGGUCGCAGACAUGUCAUCUAUGGUGCGUGACCA [Arg A SS t10]"
  Study System: "K4 kissing-loop RNA reporter"
  Label: "bucket B"
- Sequence Data: "GUACGCUCUCGAGUGAUGUUCGGUAAUAGAGAGGAUAUCGCUUUUGCGAGAAGGCUCUGAAUGAGGAAACUCGUUCUGAGUGUAC [FMN A 19]"
  Study System: "K4 kissing-loop RNA reporter"
  Label: "bucket C"
- Sequence Data: "AAGGGCGGGACUUUCUCGCCGGAUAGAGAUACCAGCCCAGCAAUGGGCCCUUGGCAGCUCACUGACCUCAGUGAUGUUGAGGUUC [Quintege]"
  Study System: "K4 kissing-loop RNA reporter"
  Label: "bucket B"
- Sequence Data: "AAUAAAAUCACGGCCGCCACUGAUUAUUUUAUUAGGAGUGAUGUUCCUAUGACAAUAUACCUUAACAGGACCGGGUGAAUAUUUA [JR_ExcTryptoB_Sub010]"
  Study System: "K4 kissing-loop RNA reporter"
  Label: "bucket A"

Q: Record AACUGUCAAGGCCAACAUUACUGAGGUGAUACCAGCAUCGAAAGAUGCCCUUGGCAGCACCGACUUGCAGUGAUGUUGCAAGUAA [BrourdMod 12 - Jieux - Exclusion - Theophylline A] — which class?
Ans: bucket C

Q: Sort UGACUGGAUGGAAGGAGCGCUAAACUCCUAGUGAUGUUAGGGACAUGAGGCAAAGCCUUGAAGCAGGUAGGUCGCCAUCUAGUCU [FiskerMod 27 - Jieux - Same State - Arginine B] into one of the categories.
Ans: bucket B

Q: Band of UUUCUAUCGGGAAGGAGCGUGAAUGAUAAUGGAUAUAGUGAUGUUAUAUAUAAGAACGAAUCGCAGGUAGGUCGCCCGGAUGACU [SSArgB.R] ?
Ans: bucket B

Q: Pick a category. Item: CGAAUGGAACUAUUGAACAUUUGUAUUGGCAAGGAUAUCGGGCUAUCGAGAAGGUGCUAUUUGGGCAGUGAUGUUGCCGAUUUAA [theeternabot_sameState_KL_FMN_A_10]
Ans: bucket A

Q: Exam item: assign AAUUUAUAUUUAUUCUUUAAAUGUUCAGAAGGAGCGUGAAUUAUCACAGGUAGGUCGCUGAGCUAGUGAUGUUGGCUAUAUACUA [whbob_Ex_Arginine_A_2t124] to the correct category.
Ans: bucket B

Q: Form: Item = UUCGUAGUAGGAAACUAUUACGAAAAGGAAGGAGCGGCGAAGAAGCCAGGUAGGUCGCCUAUUGACAGUGAUGUUGUUAUGUAGA [#9] ; Class = ?
Ans: bucket B

Q: Form field 'band' for UGAUAGGACAGAAGGAGCGGAAGUGAUGUUUCCAAAUGGAAUAAGGUGUCAAAGACACCCUUCCAGGUAGGUCGCUGUCCUAUCU [ArgBX 15 #Palindromic #SwitchBubble #StaticStem]
Ans: bucket B

Q: Dear colleague, I would appreciate it if you could identify the bin for GCAGUGAUGUUGCGGAUGUACAGUGGCGUGCGAGGACCGGUACGGCCGCCACUCGUACAGAACAAGCUAAUACAUCGAUAGGUGA [whbob_SS_Tryp_A_m1] and reply at your convenience.
Ans: bucket C

Q: Which bin, given its apparent KD of K4 kissing-loop reporter, does AGACUUCACCGAAGGAGCGACGUAGCCUAGUGAUGUUAGGCACGAGAGAAAUCUCGUAUACGUCAGGUAGGUCGCGGUGAAGUCA [Omei KL Arginine B SS C v1] occupy?
Ans: bucket B

Q: Hey, which category is CGCAGUGAUGUUGCUAUUAUUCUUGAUUAACGAGGACCGGUACGGCCGCCACUCGGUUUCUAUCUGAUCCAGCGUUUUGUUGAGU [#23 K4 Tryptophan A Exclusion] in, do you know?
Ans: bucket C

###

# Tested on: MS2 coat protein
# Assay Method Text: apparent KD of MS2 coat protein; higher = weaker reporter binding
# Settings: Eterna round: R107; input ligand: theophylline 2 mM
Below is a list of entries, each paired with its recorded apparent KD of MS2 coat protein value.
Hi! Could you send only the number? It should be in nM, unit omitted.

Some sequences with known apparent KD of MS2 coat protein results, for comparison:
- Sequence Data: "UUUAAGAACCGAAGGAGCGCCAGAAAUAAGAACGCUACAUGAGGAUCACCCAUGUAAUAAGGGCAGGUAGGUCGCGGAAUUUAAA [last]"
  apparent KD of MS2 coat protein, nM: 24.7
- Sequence Data: "AAUAUAUAGACGGCCGCCACUGGAACCAAUACAUGAGGAUCACCCAUGUGAAAAGGAUAGGUUCACAGGACCGGGUCUUCAUGUA [SS Tryp B Tesla 1.3]"
  apparent KD of MS2 coat protein, nM: 61
- Sequence Data: "AUUCAUGGAAACAUGACAUACAUAACCGGUCGAGGACCGGUACGGCCGCCACUCGUUUGGAGGCACAUGAGGAUCACCCAUGUUA [SS Tryp A #9]"
  apparent KD of MS2 coat protein, nM: 28.2
- Sequence Data: "AACAUGAGGAUCACCCAUGUGUCCUCGAAACGAGGACCGGUACGGCCGCCACUCGACGUAUGUUGACGAAAAGUCAGCAUACGAA [Mat - Exclusion - Trytophan A - D12]"
  apparent KD of MS2 coat protein, nM: 330
- Sequence Data: "CUAAAUAUAUCGGCCGCCACUUACUCAUGAGGUAACAACAUGAGGAUCACCCAUGUUUGAGGAUCAAGGACCGGGAUAUAUUUAG [AstrosSSTryB#16]"
  apparent KD of MS2 coat protein, nM: 28.9

Q: Look up apparent KD of MS2 coat protein for this sequence: ACGGACAUGAGGAUCACCCAUGUGGCCGAAGGAGCGGGAAUUAACCCAGGUAGGUCGCGGAAAUUUUUUAAAUUAUUUUAAUUUU [Same State - Arginine A]
Ans: 18.7

###

Measured apparent KD of MS2 coat protein, listed per entry for reference.
# System: MS2 coat protein
# Assay Method Text: apparent KD of MS2 coat protein; designed switch direction (-1 OFF switch, 1 ON switch): 1; higher = weaker reporter binding
# Settings: input ligand: microRNA oligo, concentration not stated
I only need the number, in nM, no unit after it.

// worked examples, apparent KD of MS2 coat protein included
- Sequence Data: "CGCAAAGUGUGAGGAUAUUCACACAUGAGGAUCACCCAUGUGACGGUUCCGGCCAGAGGAGAGCAGGAGAAGGCACAACGCGAG [Eternabot solution 5] (Eterna round: R96, puzzle: Same State NG 2)"
  apparent KD of MS2 coat protein [nM]: 101
- Sequence Data: "GCGGAACGGUGUGACAUGAGGAUCACCCAUGUAACCUCAUGUAAGGAUAUCGGGAAGAAGAAAACCGAGAAGGUACGGUGACGC [AK SSNG3-V2-29] (Eterna round: R96, puzzle: Same State NG 3)"
  apparent KD of MS2 coat protein [nM]: 152
- Sequence Data: "GAGUAGUUGGGAGGAUAUCGAUUGUUAUAGAAUCGAGAAGGUUCUAACAUGAGGAUCACCCAUGUAGGACUAUUCCUGUGUAUC [Parity 74 - Jieux - Same State NG 1] (Eterna round: R96, puzzle: Same State NG 1)"
  apparent KD of MS2 coat protein [nM]: 37.3
- Sequence Data: "AAAGAAAACGCAGGAUAUCCCGGAAAAGAUCCGGGAGAAGGGUGACCGGUACAUGAGGAUCACCCAUGUAGAGCAAAGGCUCAA [Ceonbeti] (Eterna round: R96, puzzle: Same State NG 1)"
  apparent KD of MS2 coat protein [nM]: 133

Q: What value of apparent KD of MS2 coat protein has been recorded for this entry: CUGAGGUGUCAAGGAUAUGCUACCGUUUCGGUAGCAGAAGGUGAUCACAUGAGGAUCACCCAUGUAUGCAUGCGUGAGCGUGCU [JL SSNG1 3.60] (Eterna round: R96, puzzle: Same State NG 1)
Ans: 17.8

Q: # get_value(readout='apparent KD of MS2 coat protein', item= GCUCGGCUGAUGGCCUACAUGAGGAUCACCCAUGUGAGUGGGCAGGAUAUCUAGAUUAAGGAUGUAGAGAAGGGCCUGCCGAGC [SameState NG3 #37] (Eterna round: R96, puzzle: Same State NG 3) )
Ans: 131

Q: Dear colleague, I am looking for the recorded apparent KD of MS2 coat protein of the following sequence: AUUGUUAAUGCAGGAUAUGAUUAACAUGAGGAUCACCCAUGUGGUGUUGUGAGUAAGGAGAGUGAUCAGAAGGGCAUUUUUUUU [JMF's solution 31] (Eterna round: R96, puzzle: Same State NG 2)
Ans: 810

Q: # query: apparent KD of MS2 coat protein of entry AGGCUCAGACUAGGAUAUACGUGGUCACAUGAGGAUCACCCAUGUCUCGAGCUUCGGCUCGAGGCGUAGAAGGAGUCUGAGCCA [SSNG2/6-D1] (Eterna round: R96, puzzle: Same State NG 2)
Ans: 260

Q: So what does the record say about apparent KD of MS2 coat protein for GGUAGGUUACUACCAAACAUGAGGAUCACCCAUGUAAGUGGGAAGGAUAUGGUACCUUUUAGGUACCAGAAGGUCCAAUUAAUU [JL Fiskers NG3ss - 2 mod 5] (Eterna round: R96, puzzle: Same State NG 3) ?
Ans: 511

Q: Would you mind telling me what apparent KD of MS2 coat protein value was observed for GCUCGAUGUGCUGUUUACAUGAGGAUCACCCAUGUAGAUGCGGAGGAUAUCUACGUGCUUUAUGUAGAGAAGGCCGUAUCGAGC [SameState NG3 #82] (Eterna round: R96, puzzle: Same State NG 3) ?
Ans: 25.4

Q: Record request: apparent KD of MS2 coat protein value, item GAGGGACAGACCAACAUGAGGAUCACCCAUGUCCUCGGAGGUCAGGAUAUCCGGAGGUAGCCGAAGGAGAAGGGACGGUGAACC [AK SSNG3-V2-30.1] (Eterna round: R96, puzzle: Same State NG 3)
Ans: 136
